Reference for the values: patent US20260137819A1

# TARGET_DESC: human follicle-stimulating hormone receptor (FSHR) (Homo sapiens)
# Construct: host or cells: CHO-K1
# Sequence (P23945 18-695): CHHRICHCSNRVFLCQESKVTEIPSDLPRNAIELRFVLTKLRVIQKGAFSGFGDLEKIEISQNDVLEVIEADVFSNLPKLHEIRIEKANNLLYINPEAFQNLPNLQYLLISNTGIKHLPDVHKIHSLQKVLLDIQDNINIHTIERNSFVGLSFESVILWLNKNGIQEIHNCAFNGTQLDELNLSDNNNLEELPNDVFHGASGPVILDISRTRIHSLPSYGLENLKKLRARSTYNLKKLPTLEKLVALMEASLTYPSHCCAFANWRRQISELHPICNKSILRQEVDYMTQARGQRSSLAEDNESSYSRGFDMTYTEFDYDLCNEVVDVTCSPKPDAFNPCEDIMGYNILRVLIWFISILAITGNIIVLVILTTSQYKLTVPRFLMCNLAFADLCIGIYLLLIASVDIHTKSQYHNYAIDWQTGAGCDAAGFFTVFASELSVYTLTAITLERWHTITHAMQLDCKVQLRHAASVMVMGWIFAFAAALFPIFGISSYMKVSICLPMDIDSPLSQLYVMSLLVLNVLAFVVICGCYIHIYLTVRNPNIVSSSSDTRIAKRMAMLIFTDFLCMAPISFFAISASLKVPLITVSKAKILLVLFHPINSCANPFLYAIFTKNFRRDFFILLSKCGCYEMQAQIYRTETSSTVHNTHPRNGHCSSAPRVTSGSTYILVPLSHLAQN
# METHOD_DESCRIPTION: Measurement of agonist cAMP production by activation of human FSHR
# Assay type: cell-based
# EXPERIMENTAL_CONTEXT: CHO-K1 human FSHR cells, 30 minutes at 37° C., HTRF cAMP kit; read-out: hFSHR Agonist cAMP EC50
Starred links: 1 amine or outer side, 2 acyl side, 3 side chain; linkers in the order of their positions; H or OH if unused. Non-standard residues stand in square brackets, D forms with d. Residues, ends and D or L forms follow the SMILES beside them. Groups on a side chain read outwards from the residue. *: point of attachment. X1 = COc1cc2c(cc1-c1cccc(N*)c1)-c1c(c(C(=O)N3CCOCC3(C)C)nn1-c1cc(Cl)cc(Cl)c1)CO2; DOTA = O=C(O)CN1CCN(CC(=O)O)CCN(CC(=O)*)CCN(CC(=O)O)CC1; Suc = O=C(CCC(=O)[*:2])[*:1]
READOUT_NAME: EC50

Below are worked cases with known answers.
>>> value_measured("COc1cc2c(cc1-c1cccc(NC(=O)CCOCCOCCOCCOCCNC(=O)[C@H](CS(=O)(=O)O)NC(=O)CN3CCN(CC(=O)O)CCN(CC(=O)O)CCN(CC(=O)O)CC3)c1)-c1c(c(C(=O)N3CCOCC3(C)C)nn1-c1cc(Cl)cc(Cl)c1)CO2 [Compound 26A]")
"< 10 nM"
>>> value_measured("COc1cc2c(cc1-c1cccc(NC(=O)C3CCC(CNC(=O)C(CS(=O)(=O)O)NC(=O)CN4CCN(CC(=O)O)CCN(CC(=O)O)CCN(CC(=O)O)CC4)CC3)c1)-c1c(c(C(=O)N3CCOCC3(C)C)nn1-c1cc(Cl)cc(Cl)c1)CO2 (centres unmarked)")
"10 to 100 nM"
>>> value_measured("COc1cc2c(cc1-c1cncc(OCCOCCOCCOCCOCCNC(=O)[C@H](CS(=O)(=O)O)NC(=O)CN3CCN(CC(=O)O)CCN(CC(=O)O)CCN(CC(=O)O)CC3)c1)-c1c(c(C(=O)N3CCOCC3(C)C)nn1-c1cc(Cl)cc(Cl)c1)CO2")
"< 10 nM"
>>> value_measured("COc1cc2c(cc1-c1cncc(NCCCNC(=O)CCOCCNC(=O)CN3CCN(CC(=O)O)CCN(CC(=O)O)CCN(CC(=O)O)CC3)c1)-c1c(c(C(=O)N3CCOCC3(C)C)nn1-c1cc(F)cc(F)c1)CO2")
"10 to 100 nM"
>>> value_measured("COc1cc2c(cc1-c1cccc(C(=O)NCCOCCOCCOCCOCCOCCOCCNC(=O)CN3CCN(CC(=O)O)CCN(CC(=O)O)CCN(CC(=O)O)CC3)c1)-c1c(c(C(=O)N(C)C(C)(C)C)nn1-c1cc(Cl)cc(Cl)c1)CO2")
"< 10 nM"
>>> value_measured("COc1cc2c(cc1-c1cccc(NC(=O)CCOCCOCCNC(=O)CN3CCN(CC(=O)O)CCN(CC(=O)O)CCN(CC(=O)O)CC3)c1)-c1c(c(C(=O)N3CCOCC3(C)C)nn1-c1cc(Cl)cc(Cl)c1)CO2")
"< 10 nM"

INPUT: Lab note: need EC50 for COc1cc2c(cc1-c1cccc(NC(=O)CCC(=O)NCCCC[C@@H](NC(=O)[C@@H](CCC(=O)O)NC(=O)[C@@H](CCCNC(=N)N)NC(=O)[C@@H](C)NC(=O)CN3CCN(CC(=O)O)CCN(CC(=O)O)CCN(CC(=O)O)CC3)C(=O)N[C@H](CCCNC(=N)N)C(=O)N[C@H](CCCNC(=N)N)C(=O)N[C@H](C)C(N)=O)c1)-c1c(c(C(=O)N3CCOCC3(C)C)nn1-c1cc(Cl)cc(Cl)c1)CO2 [Compound 89] ({DOTA}-[dA][dR][dE][dK]([Suc-X1])[dR][dR][dA]-NH2) on human follicle-stimulating hormone receptor (FSHR) (Homo sapiens), anyone have it?
OUTPUT: 10 to 100 nM

INPUT: // next record COc1cc2c(cc1-c1cccc(NC(=O)NCCOCCOCCOCCOCCNC(=O)CN3CCN(CC(=O)O)CCN(CC(=O)O)CCN(CC(=O)O)CC3)c1)-c1c(c(C(=O)N3CCOCC3(C)C)nn1-c1cc(Cl)cc(Cl)c1)CO2 [Compound 8A]
OUTPUT: < 10 nM
